Tested on: human primary T-cells, IL-2 stimulated proliferation (JAK-1 and JAK-3 dependent; reported as JAK3 activity)
Assay: Human primary T-cell proliferation stimulated by IL-2 (Example 3)
Assay type: cell-based
Details: Homo sapiens, T-cell, tested under conditions described in Example 3 (IL-2 stimulated human primary T-cell proliferation); read-out: ability to inhibit JAK3 activity, IC50 range (Table V)
pIC50: −log10 of the molar value. Counter-ions that a name gives are not always drawn.
MEASURE_NAME: pIC50

Look over these answered cases.
{"columns": ["MOLECULE", "READING"],
 "data": [
  ["Cc1cc(Nc2ncc(C)c(Nc3ccc4oc(=O)[nH]c4c3)n2)ccc1C(C)C", "> 6.30"],
  ["[2H]C([2H])([2H])Oc1cc(C)cc(Nc2ncc(C)c(Nc3ccc4oc(=O)[nH]c4c3)n2)c1", "> 6.30"],
  ["Cc1cc(Nc2ncc(C)c(Nc3ccc4oc(=O)[nH]c4c3)n2)ccc1-c1ccncc1 [Compound I-482, formate salt]", "> 6.30"]
]}

// next item, pIC50 requested
Reported pIC50 for "Cc1ccc(Nc2ncc(C)c(Nc3ccc4oc(=O)[nH]c4c3)n2)cc1" : what is it?
> 6.30

Taken from patent US10005767B2.
